# key: entry, value: EC50
- protocol text: fluconazole-exposed Candida albicans growth modulators – fluorescence, retest, confirmation (AID 2467)
- Format: functional, cell-based
The source made the active and inactive calls.

Here are 4 molecules together with their reported answers.
INSERT INTO results (molecule, property_name, result) VALUES
  ('CSCCC1NC2(C(=O)Nc3c(C)cc(Cl)cc32)[C@@H]2C(=O)N(C3CCCC3)C(=O)[C@H]12 (stereo not given in full)', 'EC50', '> 38 µM (not active)'),
  ('c1ccc(-c2ccc3c(c2)c2c4n3CCN=C4CCC2)cc1', 'EC50', '> 38 µM (not active)'),
  ('Cc1cccc(C2c3[nH]c4ccccc4c3CCN2C(=O)c2cc(-c3cccn3C)[nH]n2)n1 (stereo not given)', 'EC50', '3.22 µM (active)'),
  ('COCCN1C(=O)C(O)=C(C(=O)c2ccco2)C1c1cccc(Oc2ccccc2)c1 (stereo not given)', 'EC50', '4.35 µM (active)');

Lab note: next molecule to report on.
Q) Item under review: `COc1ccc(-c2[nH]nc(C)c2-c2cnn(-c3ccccc3)c2)c(O)c1` . Reported EC50?
A) 3.77 µM (active)

----------
- target entity: UniProtKB Q9GZV3
- Sequence (Q9GZV3 whole entry): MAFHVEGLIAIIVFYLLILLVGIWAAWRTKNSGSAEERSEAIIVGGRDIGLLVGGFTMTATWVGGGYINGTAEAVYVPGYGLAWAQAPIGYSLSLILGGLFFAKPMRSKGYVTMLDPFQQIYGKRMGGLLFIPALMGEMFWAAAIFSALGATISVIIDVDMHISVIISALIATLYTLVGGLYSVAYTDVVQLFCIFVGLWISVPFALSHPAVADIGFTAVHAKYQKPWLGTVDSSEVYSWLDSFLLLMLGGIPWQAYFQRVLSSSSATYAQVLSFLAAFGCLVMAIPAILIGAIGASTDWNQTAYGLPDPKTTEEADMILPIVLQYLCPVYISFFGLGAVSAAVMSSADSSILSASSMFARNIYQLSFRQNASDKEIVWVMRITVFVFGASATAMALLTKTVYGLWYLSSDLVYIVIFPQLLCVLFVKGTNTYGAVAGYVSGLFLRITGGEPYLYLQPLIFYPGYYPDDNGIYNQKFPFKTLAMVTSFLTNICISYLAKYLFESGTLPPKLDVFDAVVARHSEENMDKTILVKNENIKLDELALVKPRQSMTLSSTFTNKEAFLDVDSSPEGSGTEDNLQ
- protocol text: human choline transporter blockers, potency – cell-based, 5-point CRC, membrane potential dye, dose response (AID 504840)
- Type: functional
Activity calls are given as the source filed them.
property name: IC50

INSERT INTO results (mol, result) VALUES
  ('O=[N+]([O-])c1ccc(Nc2ccccc2)c2nonc12', '11.8 µM (active)'),
  ('Cc1ccc(C(=O)C[n+]2cc(Br)cc(Br)c2)cc1', '11.4 µM (active)'),
  ('O=C(NNC(=S)Nc1ccc(Cl)cc1)c1ccccc1OC(F)F', '13.8 µM (active)');

Let us move to another entry and its IC50.
Q) What value of IC50 has been reported for the following molecule? `Clc1cc(I)cc(Cl)c1N=C1NCCN1`
A) 1.12 µM (active)

----------
- protocol text: viability of uninfected HEp-2 cells – cell-based, HTS, cytotoxicity control for RSV inhibitor project, dose response (AID 2410)
- Type: functional
- condition description: human respiratory syncytial virus
Calls of active or inactive are those of the source.
property name: CC50

INSERT INTO results (molecule, property_name, result) VALUES
  ('COc1cc2c(C#N)c(N3CCc4ccccc4C3)nc(N)c2c(N)n1', 'CC50', '15.2 µM (active)'),
  ('CC(C)c1ccc(NC(S)=Nc2ccc3c[nH]nc3c2)cc1', 'CC50', '37.9 µM (active)'),
  ('CC(C)(C)CC(=O)NC(=S)NCCc1ccccc1', 'CC50', '39.4 µM (active)');

Q) Which CC50 value belongs to `COc1ccc2sc(NC(=O)NC(=O)c3c(Cl)cccc3Cl)nc2c1` ?
A) 17.3 µM (active)

Q) Next record, please: Cc1cccc(C(=O)Nc2ccccc2SCC2CSc3nc4ccccc4c(=O)n32)c1 (stereo not given)
A) 43 µM (active)

----------
- target entity: Carboxy-terminal domain RNA polymerase II polypeptide A small phosphatase 1 (Homo sapiens)
- Sequence (Q9GZU7 whole entry, the tested form may be a part): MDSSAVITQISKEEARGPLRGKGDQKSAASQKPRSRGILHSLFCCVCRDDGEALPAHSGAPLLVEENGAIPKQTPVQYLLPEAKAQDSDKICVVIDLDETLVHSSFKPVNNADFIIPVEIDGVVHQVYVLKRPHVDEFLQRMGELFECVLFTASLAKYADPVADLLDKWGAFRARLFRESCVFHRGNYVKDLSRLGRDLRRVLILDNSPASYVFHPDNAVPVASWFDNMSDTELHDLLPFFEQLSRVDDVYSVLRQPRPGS
- protocol text: CTDSP1 inhibitors, concentration-response, biochemical, absorbance readout, ultra-high-throughput screen actives (AID 540297)
- Assay type: functional
The source made the active and inactive calls.
// allowed return values: Yes = active, No = inactive

Take a look at these entries with their results.
INSERT INTO assay_data (compound, target_entity, class_assignment) VALUES
  ('Cc1cc(Cl)c(S(=O)(=O)NC(C(=O)O)c2ccccc2)cc1OCC(N)=O (stereo not given)', 'Carboxy-terminal domain RNA polymerase II polypeptide A small phosphatase 1 (Homo sapiens)', 'Yes'),
  ('O=C(O)c1ccc(COc2ccccc2/C=C2\NC(=O)N(Cc3ccc(F)cc3)C2=O)cc1', 'Carboxy-terminal domain RNA polymerase II polypeptide A small phosphatase 1 (Homo sapiens)', 'Yes'),
  ('O=c1c(Cl)c(N/N=C/c2ccc(Br)cc2)cnn1-c1ccccc1', 'Carboxy-terminal domain RNA polymerase II polypeptide A small phosphatase 1 (Homo sapiens)', 'No');

Q) Can you look up the reported call for CCOc1cc(/C=N/NC2=NC(=O)C(CC(=O)O)S2)ccc1OCc1ccc(Cl)cc1 (stereo not given) for me?
A) Yes

Q) Further, for `O=C(CCCCCn1c(SCc2ccncc2)nc2ccccc2c1=O)NCc1ccco1` ?
A) Yes

----------
- target entity: Histone-lysine N-methyltransferase NSD2 (Homo sapiens)
- Sequence (O96028 whole entry): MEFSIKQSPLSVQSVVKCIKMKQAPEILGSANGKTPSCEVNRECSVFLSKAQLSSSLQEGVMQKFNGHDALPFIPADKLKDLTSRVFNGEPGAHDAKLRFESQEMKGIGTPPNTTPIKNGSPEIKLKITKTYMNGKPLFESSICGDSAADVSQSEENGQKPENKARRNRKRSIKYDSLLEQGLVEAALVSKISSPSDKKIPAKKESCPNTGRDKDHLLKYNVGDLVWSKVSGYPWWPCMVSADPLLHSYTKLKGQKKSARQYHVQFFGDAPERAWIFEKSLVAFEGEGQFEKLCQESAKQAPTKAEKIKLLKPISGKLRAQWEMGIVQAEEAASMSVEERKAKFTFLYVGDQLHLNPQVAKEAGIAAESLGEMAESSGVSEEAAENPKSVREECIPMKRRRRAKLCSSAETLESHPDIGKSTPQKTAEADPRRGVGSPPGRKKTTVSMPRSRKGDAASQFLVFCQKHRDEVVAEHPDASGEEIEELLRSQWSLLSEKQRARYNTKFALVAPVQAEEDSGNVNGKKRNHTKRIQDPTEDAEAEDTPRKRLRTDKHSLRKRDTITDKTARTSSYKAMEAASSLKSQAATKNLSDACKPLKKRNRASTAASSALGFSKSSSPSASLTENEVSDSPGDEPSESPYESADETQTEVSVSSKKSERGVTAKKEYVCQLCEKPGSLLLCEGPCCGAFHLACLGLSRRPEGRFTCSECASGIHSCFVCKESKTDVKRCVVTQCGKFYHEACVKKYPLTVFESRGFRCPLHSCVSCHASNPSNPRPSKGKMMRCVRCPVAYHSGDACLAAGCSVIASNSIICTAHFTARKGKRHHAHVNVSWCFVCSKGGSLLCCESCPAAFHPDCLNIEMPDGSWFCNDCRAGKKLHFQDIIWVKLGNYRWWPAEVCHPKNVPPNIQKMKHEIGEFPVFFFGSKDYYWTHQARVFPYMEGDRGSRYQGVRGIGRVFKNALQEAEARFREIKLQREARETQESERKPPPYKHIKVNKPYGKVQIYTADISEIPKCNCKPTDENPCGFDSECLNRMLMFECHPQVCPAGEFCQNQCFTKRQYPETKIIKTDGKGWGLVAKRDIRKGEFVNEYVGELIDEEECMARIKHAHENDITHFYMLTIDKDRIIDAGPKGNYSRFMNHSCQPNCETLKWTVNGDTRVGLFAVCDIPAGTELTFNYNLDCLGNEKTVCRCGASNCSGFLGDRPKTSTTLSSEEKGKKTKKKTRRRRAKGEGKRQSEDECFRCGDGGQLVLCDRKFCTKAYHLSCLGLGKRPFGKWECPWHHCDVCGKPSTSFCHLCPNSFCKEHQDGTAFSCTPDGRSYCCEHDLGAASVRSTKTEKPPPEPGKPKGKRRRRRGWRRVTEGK
- Format: biochemical
Activity calls are given as the source filed them.
Respond using exactly one of the listed classes: y = active, n = inactive

Record excerpt, results attached:
INSERT INTO assay_data (molecule, class_assignment) VALUES
  ('CN(C)c1ccc(CN2CC=C(c3ccc(F)cc3)CC2)cc1', 'n'),
  ('NC1(C(=O)O)CSSC1', 'y'),
  ('NC1=C(Br)C(=O)c2ccccc2C1=O', 'y');

Then there is this molecule:
Q) What did this assay record as the result for `CCc1ccc(S(=O)(=O)/N=C2\C=C(Nc3cccc(C(=O)O)c3)C(=O)c3ccccc32)cc1` ?
A) y

----------
- target entity: Low molecular weight phosphotyrosine protein phosphatase (Homo sapiens);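 also: Dose-response confirmation assay measuring inhibition of LMPTP enzyme activity by fluorescence intensity read-out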
- Sequence (P24666 whole entry): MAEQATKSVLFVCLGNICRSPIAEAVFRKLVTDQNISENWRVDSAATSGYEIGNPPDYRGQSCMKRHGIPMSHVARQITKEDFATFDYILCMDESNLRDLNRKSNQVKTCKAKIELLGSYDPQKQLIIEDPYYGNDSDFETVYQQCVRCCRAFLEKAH
- Format: functional
- condition description: read-out: IC50_Mean
The source made the active and inactive calls.
// classify into active, inactive

Worked cases, answers included:
INSERT INTO measurements (mol, class_assignment) VALUES
  ('O=c1c(Cl)c(N/N=C/c2ccc(Br)cc2)cnn1-c1ccccc1', 'inactive'),
  ('CNc1nc(NC)c2c[nH]nc2n1', 'active'),
  ('Cc1c(-c2ccccc2)c(-c2ccc(OCCN(C)C)cc2)n2ccccc12', 'active'),
  ('O=C(Nc1ccc2oc(=O)ccc2c1)c1ccc(-c2cccc([N+](=O)[O-])c2)o1', 'inactive');

Moving on to another molecule below.
Q) Status in this test for `CCn1cc(C(=O)O)c(=O)c2cnc(N3CCN(C(=S)Nc4ccccc4Cl)CC3)nc21` ?
A) inactive

----------
Reported values of AC50 for individual entries
- target entity: DNA repair protein RAD52 homolog (Homo sapiens)
- Sequence (P43351 whole entry): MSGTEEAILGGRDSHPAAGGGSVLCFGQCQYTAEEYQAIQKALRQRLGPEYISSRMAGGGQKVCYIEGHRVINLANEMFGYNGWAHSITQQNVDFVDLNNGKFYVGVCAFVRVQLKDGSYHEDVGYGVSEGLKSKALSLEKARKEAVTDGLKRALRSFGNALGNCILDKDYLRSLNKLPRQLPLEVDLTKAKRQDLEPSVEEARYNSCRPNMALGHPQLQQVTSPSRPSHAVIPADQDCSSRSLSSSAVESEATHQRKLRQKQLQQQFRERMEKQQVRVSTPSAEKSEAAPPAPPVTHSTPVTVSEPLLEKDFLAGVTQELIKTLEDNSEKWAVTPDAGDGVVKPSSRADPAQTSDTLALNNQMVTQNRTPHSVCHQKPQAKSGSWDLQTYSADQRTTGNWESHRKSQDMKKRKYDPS
- Type: functional, biochemical
The source made the active and inactive calls.

INSERT INTO results (compound, result) VALUES
  ('CN(C)CCCn1c(SCC(=O)N2c3ccccc3Sc3ccccc32)nc2ccccc2c1=O', '17.1 µM (active)');

Q) Tell me the measured AC50 of `CCN(CC)CCCN(C(=O)c1ccc(OC)cc1)c1nc(-c2ccc(OC)cc2)cs1` , please.
A) 18.1 µM (active)

Q) Next up: `CN(C)CCNC(=O)c1cccc2nc3c(ccc4ccccc43)nc12`
A) 0.501 µM (active)

Q) And the next one, COc1cc2c(cc1OC)-c1c(OC)c(OC)cc3c1C(C2)N(C)CC3 (centres undefined) ?
A) 2.14 µM (active)

----------
- target entity: CAAX prenyl protease 2 (Saccharomyces cerevisiae S288c, UniProt Q03530)
- Sequence (Q03530 whole entry): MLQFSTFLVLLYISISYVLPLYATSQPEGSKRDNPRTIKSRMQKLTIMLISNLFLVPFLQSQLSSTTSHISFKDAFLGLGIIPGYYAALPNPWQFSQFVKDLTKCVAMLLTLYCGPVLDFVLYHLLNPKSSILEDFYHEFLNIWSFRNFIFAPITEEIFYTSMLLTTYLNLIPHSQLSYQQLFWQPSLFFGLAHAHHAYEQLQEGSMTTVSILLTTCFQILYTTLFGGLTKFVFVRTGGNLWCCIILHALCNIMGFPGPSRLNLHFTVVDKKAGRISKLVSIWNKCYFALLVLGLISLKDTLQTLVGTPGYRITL
- Format: biochemical
Calls of active or inactive are those of the source.
property name: AC50

Worked examples follow.
INSERT INTO measurements (compound, target_entity, result) VALUES
  ('O=C(c1cnc2n(c1=O)CCS2)N1CCN(C(c2ccccc2)c2ccc(Cl)cc2)CC1 (stereo unspecified)', 'CAAX prenyl protease 2 (Saccharomyces cerevisiae S288c, UniProt Q03530)', '8.81 µM (active)'),
  ('CCCCCCCCCCOC(=O)Cn1c(COc2cccc(OC)c2)[n+](C)c2ccccc21', 'CAAX prenyl protease 2 (Saccharomyces cerevisiae S288c, UniProt Q03530)', '65.2 µM (active)'),
  ('CC(=O)OC1CCC2(C)C(COc3ccc4ccc(=O)oc4c3)C(C)(O)CCC2C1(C)C (stereo unspecified)', 'CAAX prenyl protease 2 (Saccharomyces cerevisiae S288c, UniProt Q03530)', '18.1 µM (active)'),
  ('O=C(CC1(O)C(=O)N(C/C=C/c2ccccc2)c2ccccc21)c1ccccn1 (stereo unspecified)', 'CAAX prenyl protease 2 (Saccharomyces cerevisiae S288c, UniProt Q03530)', '26.3 µM (active)'),
  ('CN(C)CCN(C(=O)c1ccc2ccccc2c1)c1nc2ccc(Br)cc2s1', 'CAAX prenyl protease 2 (Saccharomyces cerevisiae S288c, UniProt Q03530)', '4.77 µM (active)');

Please look at the following compound next.
Q) // returns reported AC50 for input `Cc1cc(-c2ccccc2)n2nc(C)c(C#N)c2n1`
A) 15.5 µM (active)
